- assay_system: Replicase polyprotein 1ab (Severe acute respiratory syndrome coronavirus 2)
- protocol_summary: Inhibition of SARS-CoV-2 3CLp using fluorescent substrate by FRET assay
measured_quantity: IC50

| compound | measured_quantity | result |
| --- | --- | --- |
| CC(C)[C@H]1C(=O)N2C[C@]3(C[C@H]2C#N)C(=O)Nc2ccc(cc23)CCCCCN1C(=O)C1CN(c2ccccc2)N=N1 (stereo partly specified) | IC50 | < 100 nM |
| N#C[C@@H]1C[C@]23CN1C(=O)[C@H](c1ccccc1)N(C(=O)C1CN(c4ccc(F)cc4)N=N1)CCCCCc1ccc(c2c1)NC3=O (stereo partly specified) | IC50 | < 100 nM |
| CCOC(=O)/C=C/C(=O)N(c1ccc(-c2ccccc2)cc1)[C@@H](C(=O)N[C@@H](C)c1ccccc1)c1cccnc1 | IC50 | > 20000 nM |
| CC(C)[C@H]1C(=O)N2C[C@]3(C[C@H]2C#N)C(=O)Nc2ccc(cc23)CCCCCN1C(=O)c1cc2c(F)cc(F)c(F)c2[nH]1 | IC50 | < 100 nM |
| CC(C)[C@H]1C(=O)N2C[C@]3(C[C@H]2C#N)C(=O)Nc2ccc(cc23)CCCCCN1C(=O)c1cc2c(F)cc(F)cc2[nH]1 | IC50 | < 100 nM |
| CCC[C@H]1C(=O)N2C[C@]3(C[C@H]2C#N)C(=O)Nc2ccc(cc23)CCCCCN1C(=O)c1cc2c(F)cc(F)c(F)c2[nH]1 | IC50 | < 100 nM |
